assay: HTRF spectral interference by compounds, SAR follow-up, artefact control, biochemical, fluorescence ratio (AID 2496); conditions: HTRF spectral interference counter-screen
Activity calls are given as the source filed them. Cut-off read from the data, not from the text of the source: active = IC50 below about 40 µM; inactive = the rest.
One label from this list, please: YES = active, NO = inactive

Example cases with answers are listed next.
> print(dat)
                                   compound  label
1  CC(=O)Oc1ccc(N2C(=O)C3C(C2=O)C2(C)C=CC3(C)O2)cc1 (stereo not given)    YES
2     CC(/C=C/c1ccco1)=NNC(=O)c1cc(C)[nH]n1     NO
3  O=C(COC(=O)c1c2c(nc3ccccc13)/C(=C/c1ccco1)CC2)NC1CCCC1    YES

State the result this test recorded for `CCOC(=O)c1sc2nc(-c3ccco3)c3c(c2c1N)CC(C)(C)OC3` .
NO

State the result this test recorded for `Nc1c(C(=O)NC2CC2)sc2nc3c(c(-c4ccco4)c12)CC/C3=C/c1ccco1` .
YES
